pIC50 values for the molecules below.
System: CCRF-CEM/Taxol®
Test: cells
Format: cell-based, human
Conditions: Table 1A; XTT, 72 h; read-out: IC50
Starred links: 1 amine or outer side, 2 acyl side, 3 side chain; linkers in the order of their positions; H or OH if unused. Positions of bridges follow the written chain, without caps; N, C: chain ends. Non-standard residues stand in square brackets, D forms with d. Residues, ends and D or L forms follow the SMILES beside them. Chains are numbered I, II in the order given. Actinocin(9to1) = Cc1c2oc3c(C)ccc(C(=O)[*:1])c3nc-2c(C(=O)[*:2])c(N)c1=O; NMeV = CN[C@H](C(=O)O)C(C)C; Sar = CNCC(=O)O
Please keep in mind that pIC50 is minus log10 of the molar concentration; only the number is needed.

Some solved cases for reference:
{"molecule": "C/C(=C\\c1csc(C)n1)[C@@H]1C[C@@H]2O[C@]2(C)CCC[C@H](C)[C@H](O)[C@@H](C)C(=O)C(C)(C)[C@@H](O)CC(=O)O1 [Epothilone B, epothilone B]", "pIC50": 8.96}
{"molecule": "C/C(=C\\c1csc(C)n1)[C@@H]1C[C@@H]2O[C@@H]2CCC[C@H](C)[C@H](O)[C@@H](C)C(=O)C(C)(C)[C@@H](O)CC(=O)O1 [Epothilone A, epothilone A]", "pIC50": 8.43}
{"molecule": "C/C(=C\\c1csc(C)n1)[C@@H]1C/C=C\\CCC[C@H](C)[C@H](O)[C@@H](C)C(=O)C(C)(C)[C@@H](O)CC(=O)O1 [Desoxyepothilone A, desoxyepothilone A]", "pIC50": 7.82}
{"molecule": "C/C1=C/C[C@@H](/C(C)=C/c2csc(C)n2)OC(=O)C[C@H](O)C(C)(C)C(=O)[C@H](C)[C@@H](O)[C@@H](C)CCC1 [Desoxyepothilone B, desoxyepothilone B]", "pIC50": 7.79}

QUERY: # value lookup — system CCRF-CEM/Taxol®, readout pIC50, item Cc1c2oc3c(C)ccc(C(=O)N[C@@H]4C(=O)N[C@H](C(C)C)C(=O)N5CCC[C@H]5C(=O)N(C)CC(=O)N(C)[C@@H](C(C)C)C(=O)O[C@@H]4C)c3nc-2c(C(=O)N[C@@H]2C(=O)N[C@H](C(C)C)C(=O)N3CCC[C@H]3C(=O)N(C)CC(=O)N(C)[C@@H](C(C)C)C(=O)O[C@@H]2C)c(N)c1=O [Actinomycin D, actinomycin D] (I: T[dV]P[Sar][NMeV] / II: T[dV]P[Sar][NMeV]; ester I:1-I:C, II:1-II:C; linker I:N-II:N via Actinocin(9to1))
RESULT: 8.89
